- Tested on: P388 leukemia ip, CD2F1 mice, survival T/C
- Procedure Details: NCI In Vivo Anticancer Drug Screen. Data for tumor model P388 Leukemia (intraperitoneal) in CD2F1 (CDF1) mice
- Test Parameters: endpoint: median survival time; dose: 100.0 mg/kg/injection; schedule: Q01DX009 (ip); vehicle: Klucel (hydroxypropylcellulose) (HPC); higher = longer survival
Toxic doses and inconclusive results are not listed.

# Compound, T/C
rows = [
    ("CC1(C)N2c3ccc(Cl)cc3C(c3ccccc3)N1c1ccc(Cl)cc1C2c1ccccc1 (stereo unspecified)", "95 % of control"),
    ("COC(=O)C1c2ccccc2CC(=O)N1NC(C)=O (stereo unspecified)", "101 % of control"),
    ("O=S(=O)(CC(O)C(Cl)(Cl)Cl)N1CCCCC1 (stereo unspecified)", "95 % of control"),
    ("COc1ccc2c(c1)sc1nc(Oc3ccccc3)nc(=O)n12", "108 % of control"),
    ("C1Cc2c3c(c4c(c2C1)CCC4)CCC3", "91 % of control"),
    ("NC(=O)c1ccc[n+](Cc2ccccc2)c1", "93 % of control"),
]
